Data origin: patent US6620828B2

# targetDesc: CDK4/Cyclin D3 complex (Homo sapiens)
# Construct: made in house; host or cells: insect cells co-infected with baculovirus vectors
# Sequence (P11802 whole entry): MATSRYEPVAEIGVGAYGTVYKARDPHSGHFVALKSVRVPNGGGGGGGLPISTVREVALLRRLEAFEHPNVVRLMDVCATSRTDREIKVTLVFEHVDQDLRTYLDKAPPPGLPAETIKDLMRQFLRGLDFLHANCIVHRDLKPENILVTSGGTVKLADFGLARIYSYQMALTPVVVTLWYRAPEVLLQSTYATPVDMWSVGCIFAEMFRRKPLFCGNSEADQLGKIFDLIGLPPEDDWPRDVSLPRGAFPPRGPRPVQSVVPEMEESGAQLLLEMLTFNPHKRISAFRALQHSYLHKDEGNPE
# Sequence (P30281 whole entry partner): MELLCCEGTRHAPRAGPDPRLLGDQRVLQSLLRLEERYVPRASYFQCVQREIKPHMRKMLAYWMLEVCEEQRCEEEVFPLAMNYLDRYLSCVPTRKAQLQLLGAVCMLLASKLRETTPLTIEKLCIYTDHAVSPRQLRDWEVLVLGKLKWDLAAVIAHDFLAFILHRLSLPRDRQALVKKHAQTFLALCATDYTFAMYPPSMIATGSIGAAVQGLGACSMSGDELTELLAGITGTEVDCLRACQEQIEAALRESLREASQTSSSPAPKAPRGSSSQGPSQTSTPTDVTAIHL
# assayName: CDK4/Cyclin D assay
# Assay type: biochemical
# protocolConditions: 1.0 μM; combinatorial library compounds
measureName: inhibition at 1 µM (%)

CCCCCc1ccc(-c2csc(-c3sc(Nc4ccc(N(C)C)cc4)nc3N)n2)cc1: 36.2
Nc1nc(Nc2ccc(S(N)(=O)=O)cc2)sc1-c1nc(-c2ccc3c(c2)OCCO3)cs1: 31.8

(a) CCOC(=O)c1ccccc1-c1csc(-c2sc(Nc3ccc(S(N)(=O)=O)cc3)nc2N)n1
(b) CC(C)c1ccc(Nc2nc(N)c(-c3nc(-c4cccc([N+](=O)[O-])c4)cs3)s2)cc1
Min inhibition at 1 µM? a | b // respond with label for picked entry
b
(b: 35.3%, a: 53.3%)
